molecular target: Recombinant human FAP (Homo sapiens); construct: purchased R&D systems; assay: FAP FRET assay, FGF21-sequence FRET peptide substrate; assay type: biochemical; conditions: FRET peptide with human FGF21 sequence, 6 μM, 37° C.
Sequence (Q12884 whole entry): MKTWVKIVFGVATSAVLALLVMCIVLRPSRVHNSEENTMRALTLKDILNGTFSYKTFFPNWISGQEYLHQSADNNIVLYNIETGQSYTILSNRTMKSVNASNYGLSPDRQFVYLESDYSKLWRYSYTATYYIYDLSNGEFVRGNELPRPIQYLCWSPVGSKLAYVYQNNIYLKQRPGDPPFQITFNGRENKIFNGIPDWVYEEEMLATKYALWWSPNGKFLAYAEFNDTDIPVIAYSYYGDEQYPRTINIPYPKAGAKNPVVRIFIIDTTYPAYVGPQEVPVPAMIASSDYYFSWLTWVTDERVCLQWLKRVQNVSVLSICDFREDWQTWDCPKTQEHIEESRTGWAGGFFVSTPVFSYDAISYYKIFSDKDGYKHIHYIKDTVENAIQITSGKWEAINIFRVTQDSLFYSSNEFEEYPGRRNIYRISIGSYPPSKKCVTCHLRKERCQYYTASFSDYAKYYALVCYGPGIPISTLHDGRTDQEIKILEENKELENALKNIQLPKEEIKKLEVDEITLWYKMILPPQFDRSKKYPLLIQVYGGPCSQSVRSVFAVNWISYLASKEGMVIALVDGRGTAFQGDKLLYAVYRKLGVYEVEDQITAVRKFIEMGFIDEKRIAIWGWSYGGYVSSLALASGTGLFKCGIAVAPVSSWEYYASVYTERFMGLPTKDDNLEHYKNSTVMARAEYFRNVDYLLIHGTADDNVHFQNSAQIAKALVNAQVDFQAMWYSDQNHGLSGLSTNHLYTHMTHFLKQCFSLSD
pIC50: −log10 of the molar value.
Outcome measure: pIC50

Answered cases to consult:
COc1cc(N[C@@H]2CCN(CC(=O)N3C[C@@H](F)C[C@H]3C#N)C2)c2cccnc2c1    8.59
CC(=O)Nc1ccc(N[C@H]2CCN(CC(=O)N3CCC[C@H]3C#N)C2)c2cccnc12    8.33
N#C[C@@H]1CCCN1C(=O)CN1CC[C@@H](Nc2cc(F)cc3ncccc23)C1    8.28
N#C[C@@H]1C[C@H](F)CN1C(=O)CN1CC[C@@H](Nc2cccc3ncc(F)cc23)C1    8.49
N#C[C@@H]1CCCN1C(=O)CN1CC[C@@H](Nc2ccnc3ccc(F)cc23)C1    8.14
COc1cnc2cccc(NC3CCN(CC(=O)N4C[C@@H](F)C[C@H]4C#N)CC3)c2c1    8.41
Cc1cnc2ccc(N[C@@H]3CCN(CC(=O)N4CCC[C@H]4C#N)C3)cc2c1    7.58
COc1cnc2cccc(N[C@@H]3CCN(CC(=O)N4C[C@@H](F)C[C@H]4C#N)C3)c2c1    8.59

a: N#C[C@@H]1C[C@H](F)CN1C(=O)CN1CC[C@H](Nc2cc(Cl)c3ncccc3c2)C1
b: Cc1ccc2nccc(N[C@@H]3CCN(CC(=O)N4CCC[C@H]4C#N)C3)c2c1
c: COc1ccc(N[C@H]2CCN(CC(=O)N3CCC[C@H]3C#N)C2)c2cccnc12
d: N#C[C@@H]1C[C@H](F)CN1C(=O)CN1CCC(Nc2cc(Cl)nc(N3CCOCC3)c2)CC1
Query :: Would you mind ranking these compounds by ascending pIC50? When ranking, write the labels in the order the request describes.
Result :: d, b, c, a
(d: 7.11, b: 7.88, c: 8.40, a: 8.82)

a: COc1ccnc2ccc(N[C@@H]3CCN(CC(=O)N4CCC[C@H]4C#N)C3)cc12
b: CNC(=O)c1ccc(NC2CCN(CC(=O)N3C[C@@H](F)C[C@H]3C#N)CC2)c2cccnc12
Query :: Which gives the smaller pIC50 number: a or b ? Please reply using the label of the selected record.
Result :: a

1: COc1cnc2cccc(N[C@@H]3CCN(CC(=O)N4CCC[C@H]4C#N)C3)c2c1
2: Cc1cnc2ccc(N[C@@H]3CCN(CC(=O)N4C[C@@H](F)C[C@H]4C#N)C3)cc2c1
Query :: Which gives the smaller pIC50 number: 1 or 2 ? Please reply using the label of the selected record.
Result :: 2

a: Cc1cc(OC2CCN(CC(=O)N3C[C@@H](F)C[C@H]3C#N)CC2)c2cc(F)ccc2n1
b: Cc1cc(N[C@@H]2CCN(CC(=O)N3C[C@@H](F)C[C@H]3C#N)C2)cc2cccnc12
Query :: Which gives the smaller pIC50 number: a or b ? Please reply using the label of the selected record.
Result :: b

a: COc1ccc(N[C@H]2CCN(CC(=O)N3C[C@@H](F)C[C@H]3C#N)C2)c2cccnc12
b: CN(C(=O)c1ccc(N[C@H]2CCN(CC(=O)N3C[C@@H](F)C[C@H]3C#N)C2)c2cccnc12)c1ccccc1
c: N#C[C@@H]1CCCN1C(=O)CN1CC[C@@H](Nc2ccc3nc(Cl)ccc3c2)C1
d: N#Cc1cccc2c(OC3CCN(CC(=O)N4C[C@@H](F)C[C@H]4C#N)CC3)ccnc12
Query :: # sort list by recorded pIC50, greatest to least When ranking, write the labels in the order the request describes.
Result :: a, d, b, c
(a: 8.72, d: 8.44, b: 7.97, c: 7.48)

I: Cc1ccc2nccc(OC3CCN(CC(=O)N4C[C@@H](F)C[C@H]4C#N)CC3)c2c1
II: COc1cccc2c(N[C@@H]3CCN(CC(=O)N4C[C@@H](F)C[C@H]4C#N)C3)ccnc12
Query :: When their pIC50 values are compared, which is larger, I or II ? Please reply using the label of the selected record.
Result :: I
(I: 8.82, II: 7.66)

a: N#C[C@@H]1CCCN1C(=O)CN1CC[C@H](Nc2cccc3ncc(F)cc23)C1
b: CCOc1ccc(NC2CCN(CC(=O)N3C[C@@H](F)C[C@H]3C#N)CC2)c2cccnc12
c: COc1ccc2ncccc2c1N[C@@H]1CCN(CC(=O)N2C[C@@H](F)C[C@H]2C#N)C1
d: N#C[C@@H]1C[C@H](F)CN1C(=O)CN1CCC(Nc2ccc(C(=O)Nc3ccon3)c3ncccc23)CC1
e: N#C[C@@H]1C[C@H](F)CN1C(=O)CN1CCC(Nc2cc(C(F)(F)F)c3ncccc3c2)CC1
Query :: # sort list by recorded pIC50, greatest to least When ranking, write the labels in the order the request describes.
Result :: a, d, b, e, c

From: patent US11655235B2
